Test system: HT-29
test-description: Cytotoxicity against human HT-29 cells after 48 hrs by SRB assay
Assay type: functional
conditions-used: HT-29, 48 h
Below: a set of entries, each annotated with reported TGI.
metric-name: TGI

# compound, recorded-measurement
records = [
    ("COc1c(C)c(OC)c(OC)c2c1C[C@H]1[C@@H](OC)N(C(=O)OC(C)C)CC(=O)N1[C@H]2COCc1ccccc1", "0.273 µM"),
    ("COc1c(C)c(OC)c(OC)c2c1C[C@@H]1N[C@H]2[C@@H]2Cc3c(OC)c(C)c(OC)c(OC)c3[C@H](CO)N2C1=O (relative stereo)", "> 15.1 µM"),
    ("COc1c(C)c(OC)c(OC)c2c1C[C@H]1CN(C(=O)OC(C)(C)C)[C@@H](Cc3ccccc3)C(=O)N1[C@H]2COCc1ccccc1", "> 16.6 µM"),
    ("COc1cc(C[C@@H]2NCC3=Cc4c(OC)c(C)c(OC)c(OC)c4[C@H](COC(=O)c4cccc5ccccc45)N3C2=O)c(OC)c(C)c1OC", "> 14.1 µM"),
    ("COc1c(C)c(OC)c(OC)c2c1C[C@H]1[C@@H]3N[C@@H](Cc4ccccc43)C(=O)N1[C@H]2COC(=O)/C=C/c1ccccc1 (relative stereo)", "> 17.3 µM"),
    ("COc1c(C)c(OC)c(OC)c2c1C[C@H]1CN(C(=O)OC(C)(C)C)CC(=O)N1[C@H]2COCc1ccccc1", "> 18.4 µM"),
]

###

Test system: A549
test-description: Cytotoxicity against human A549 cells after 48 hrs by SRB assay
Assay type: functional
conditions-used: A549, 48 h
Below: a set of entries, each annotated with reported LC50 (concentration causing 50% net cell kill).
metric-name: LC50 (concentration causing 50% net cell kill)

# compound, recorded-measurement
measured = [
    ("COc1c(C)c(OC)c(OC)c2c1C[C@H]1[C@@H]3c4c(c(OC)c(C)c(OC)c4OC)C[C@H](C(=O)N1C2COC(=O)c1cccc2ccccc12)N3C (relative stereo)", "> 14.4 µM"),
    ("COc1c(C)c(OC)c(OC)c2c1C[C@H]1[C@@H]3N[C@@H](Cc4ccccc43)C(=O)N1[C@H]2COC(=O)c1cccc2ccccc12 (relative stereo)", "> 17.3 µM"),
    ("COc1c(C)c(OC)c(OC)c2c1C[C@H]1[C@H]3c4ccccc4C[C@@H]([C@H](C#N)N1[C@H]2CO)N3C (relative stereo)", "18.7 µM"),
    ("COc1c(C)c(OC)c(OC)c2c1C[C@H]1CN(C(=O)OC(C)(C)C)CC(=O)N1[C@H]2COCc1ccccc1", "> 19 µM"),
    ("COc1c(C)c(OC)c(OC)c2c1C[C@H]1N[C@@H]2[C@@H]2Cc3c(OC)c(C)c(OC)c(OC)c3[C@H](COC(=O)c3cccc4ccccc34)N2C1=O", "> 14.6 µM"),
    ("COc1cc(C[C@@H]2NCC3=Cc4c(OC)c(C)c(OC)c(OC)c4[C@H](COC(=O)c4cccc5ccccc45)N3C2=O)c(OC)c(C)c1OC", "> 14.6 µM"),
]

###

System: HT-29
test-description: Cytotoxicity against human HT-29 cells after 48 hrs by SRB assay
Assay type: functional
conditions-used: HT-29, 48 h
Threshold check on GI50: strictly below 9 µM is 1; on or above 9 µM is 0.

# molecule, label-value
records = [
    ("COc1c(C)c(OC)c(OC)c2c1C[C@H]1[C@H]3c4ccccc4C[C@@H](C(=O)N1[C@H]2COCc1ccccc1)N3C(=O)OC(C)C", 0),
    ("COc1c(C)c(OC)c(OC)c2c1C[C@H]1[C@H](C#N)N3[C@@H](CO)c4c(c(OC)c(C)c(OC)c4OC)C[C@H]3[C@@H]2N1C (relative stereo)", 1),
    ("COc1c(C)c(OC)c(OC)c2c1C[C@@H]1N[C@H]2[C@@H]2Cc3c(OC)c(C)c(OC)c(OC)c3[C@H](CO)N2C1=O (relative stereo)", 0),
    ("COc1cc(C[C@@H]2NCC3=Cc4c(OC)c(C)c(OC)c(OC)c4[C@H](COC(=O)c4cccc5ccccc45)N3C2=O)c(OC)c(C)c1OC", 1),
    ("COc1ccc(C[C@H]2C(=O)N3[C@@H](COCc4ccccc4)c4c(c(OC)c(C)c(OC)c4OC)C[C@H]3[C@@H](OC)N2C(=O)OC(C)(C)C)cc1OC", 0),
    ("COc1c(C)c(OC)c(OC)c2c1C[C@H]1[C@@H](OC)N(C(=O)OC(C)C)[C@@H](Cc3ccccc3)C(=O)N1[C@H]2COCc1ccccc1", 0),
]

###

System: A549
test-description: Cytotoxicity against human A549 cells after 48 hrs by SRB assay
Format: functional
conditions-used: A549, 48 h
Below: a set of entries, each annotated with reported LC50 (concentration causing 50% net cell kill).
metric-name: LC50 (concentration causing 50% net cell kill)

# compound, target, recorded-measurement
records = [
    ("COc1c(C)c(OC)c(OC)c2c1C[C@H]1CN(C(=O)OC(C)(C)C)[C@@H](Cc3ccccc3)C(=O)N1[C@H]2COCc1ccccc1", "A549", "> 16.2 µM"),
    ("COc1c(C)c(OC)c(OC)c2c1C[C@H]1CN(C)[C@@H](Cc3ccccc3)C(=O)N1[C@H]2COCc1ccccc1", "A549", "> 18.8 µM"),
    ("COc1c(C)c(OC)c(OC)c2c1C[C@H]1[C@H]3c4ccccc4C[C@@H](C(=O)N1[C@H]2COCc1ccccc1)N3C(=O)OC(C)C", "A549", "> 16.6 µM"),
    ("COc1cc(C[C@H]2NC=C3Cc4c(OC)c(C)c(OC)c(OC)c4[C@H](COC(=O)/C=C/c4ccccc4)N3C2=O)c(OC)c(C)c1OC", "A549", "> 15.2 µM"),
    ("COc1c(C)c(OC)c(OC)c2c1C[C@H]1[C@@H](OC)N(C(=O)OC(C)C)[C@@H](Cc3ccccc3)C(=O)N1[C@H]2COCc1ccccc1", "A549", "> 15.8 µM"),
    ("COc1c(C)c(OC)c(OC)c2c1C[C@@H]1N[C@H]2[C@@H]2Cc3c(OC)c(C)c(OC)c(OC)c3[C@H](CO)N2C1=O (relative stereo)", "A549", "> 18.9 µM"),
    ("COc1c(C)c(OC)c(OC)c2c1C[C@H]1[C@H]3c4ccccc4C[C@@H]([C@H](C#N)N1[C@H]2COC(=O)/C=C/c1cccc(C(F)(F)F)c1)N3C (relative stereo)", "A549", "3.86 µM"),
    ("COc1c(C)c(OC)c(OC)c2c1C[C@H]1CN(Cc3ccc4ccccc4c3[N+](=O)[O-])CC(=O)N1[C@H]2COCc1ccccc1 (relative stereo)", "A549", "> 16.3 µM"),
    ("COc1c(C)c(OC)c(OC)c2c1C[C@H]1[C@H]3c4ccccc4C[C@@H](C(=O)N1[C@H]2CO)N3C(=O)OC(C)C", "A549", "> 19.6 µM"),
    ("COc1c(C)c(OC)c(OC)c2c1C[C@H]1CN(Cc3ccccc3)CC(=O)N1[C@H]2COCc1ccccc1 (relative stereo)", "A549", "> 19.4 µM"),
    ("COc1c(C)c(OC)c(OC)c2c1C[C@H]1[C@@H]3N[C@@H](Cc4ccccc43)C(=O)N1[C@H]2COC(=O)/C=C/c1ccccc1 (relative stereo)", "A549", "> 18 µM"),
    ("COc1c(C)c(OC)c(OC)c2c1C[C@H]1CN(C(=O)OC(C)C)[C@@H](Cc3ccccc3)C(=O)N1[C@H]2COCc1ccccc1", "A549", "> 16.6 µM"),
    ("COc1c(C)c(OC)c(OC)c2c1C[C@H]1[C@@H](OC)N(C(=O)OC(C)C)CC(=O)N1[C@H]2COCc1ccccc1", "A549", "> 18.4 µM"),
]

###

Test system: A549
test-description: Cytotoxicity against human A549 cells after 48 hrs by SRB assay
Format: functional
conditions-used: A549, 48 h
Below: a set of entries, each annotated with reported GI50.

# compound, target, GI50
measured = [
    ("COc1ccc(C[C@H]2C(=O)N3[C@@H](COCc4ccccc4)c4c(c(OC)c(C)c(OC)c4OC)C[C@H]3[C@@H](OC)N2C(=O)OC(C)(C)C)cc1OC", "A549", "9.2 µM"),
    ("COc1c(C)c(OC)c(OC)c2c1C[C@H]1[C@@H](OC)N(C(=O)OC(C)C)[C@@H](Cc3ccccc3)C(=O)N1[C@H]2COCc1ccccc1", "A549", "11.1 µM"),
    ("COc1cc2c(cc1O)CCN[C@]21CS[C@@H]2c3c(OC(C)=O)c(C)c4c(c3[C@H](COC1=O)N1[C@@H]2[C@H]2c3c(cc(C)c(OC)c3O)C[C@@H]([C@@H]1O)N2C)OCO4", "A549", "0.00281 µM"),
    ("CCCN1CC(=O)N2[C@@H](Cc3c(OC)c(C)c(OC)c(OC)c3[C@@H]2COCc2ccccc2)C1 (relative stereo)", "A549", "10 µM"),
    ("COc1c(C)c(OC)c(OC)c2c1C[C@H]1[C@@H]3c4c(c(OC)c(C)c(OC)c4OC)C[C@H](C(=O)N1C2COC(=O)c1cccc2ccccc12)N3C (relative stereo)", "A549", "6.17 µM"),
    ("COc1c(C)c(OC)c(OC)c2c1C[C@H]1CN(Cc3ccccc3)CC(=O)N1[C@H]2COCc1ccccc1 (relative stereo)", "A549", "7.16 µM"),
    ("COc1c(C)c(OC)c(OC)c2c1C[C@H]1N[C@@H]2[C@@H]2Cc3c(OC)c(C)c(OC)c(OC)c3[C@H](COC(=O)c3cccc4ccccc34)N2C1=O", "A549", "7.32 µM"),
    ("COc1cc(C[C@H]2NC=C3Cc4c(OC)c(C)c(OC)c(OC)c4[C@H](COC(=O)/C=C/c4ccccc4)N3C2=O)c(OC)c(C)c1OC", "A549", "6.53 µM"),
    ("COc1c(C)c(OC)c(OC)c2c1C[C@@H]1N[C@H]2[C@@H]2Cc3c(OC)c(C)c(OC)c(OC)c3[C@H](CO)N2C1=O (relative stereo)", "A549", "> 18.9 µM"),
    ("COc1c(C)c(OC)c(OC)c2c1C[C@H]1[C@H]3c4ccccc4C[C@@H]([C@H](C#N)N1[C@H]2COC(=O)/C=C/c1cccc(C(F)(F)F)c1)N3C (relative stereo)", "A549", "2.32 µM"),
    ("COc1c(C)c(OC)c(OC)c2c1C[C@H]1[C@H]3c4ccccc4C[C@@H](C(=O)N1[C@H]2COCc1ccccc1)N3C(=O)OC(C)C", "A549", "> 16.6 µM"),
    ("COc1c(C)c(OC)c(OC)c2c1C[C@H]1CN(C)[C@@H](Cc3ccccc3)C(=O)N1[C@H]2COCc1ccccc1", "A549", "12.2 µM"),
    ("COc1c(C)c(OC)c(OC)c2c1C[C@H]1[C@H]3c4ccccc4C[C@@H]([C@H](C#N)N1[C@H]2CO)N3C (relative stereo)", "A549", "5.78 µM"),
    ("COc1c(C)c(OC)c(OC)c2c1C[C@H]1[C@H](C#N)N3[C@@H](CO)c4c(c(OC)c(C)c(OC)c4OC)C[C@H]3[C@@H]2N1C (relative stereo)", "A549", "3.43 µM"),
    ("COc1c(C)c(OC)c(OC)c2c1C[C@H]1[C@@H]3N[C@@H](Cc4ccccc43)C(=O)N1[C@H]2COC(=O)c1cccc2ccccc12 (relative stereo)", "A549", "13.3 µM"),
    ("COc1c(C)c(OC)c(OC)c2c1C[C@H]1[C@@H]3N[C@@H](Cc4ccccc43)C(=O)N1[C@H]2COC(=O)/C=C/c1ccccc1 (relative stereo)", "A549", "1.05 µM"),
    ("COc1c(C)c(OC)c(OC)c2c1C[C@H]1CN(C(=O)OC(C)(C)C)CC(=O)N1[C@H]2COCc1ccccc1", "A549", "8.82 µM"),
    ("COc1c(C)c(OC)c(OC)c2c1C[C@H]1[C@@H](OC)N(C(=O)OC(C)C)CC(=O)N1[C@H]2COCc1ccccc1", "A549", "11.2 µM"),
    ("COc1c(C)c(OC)c(OC)c2c1C[C@H]1[C@H]3c4ccccc4C[C@@H](C(=O)N1[C@H]2CO)N3C(=O)OC(C)C", "A549", "> 19.6 µM"),
    ("COc1c(C)c(OC)c(OC)c2c1C[C@H]1CN(C(=O)OC(C)C)[C@@H](Cc3ccccc3)C(=O)N1[C@H]2COCc1ccccc1", "A549", "> 16.6 µM"),
    ("COc1ccc(C[C@H]2C(=O)N3[C@@H](COCc4ccccc4)c4c(c(OC)c(C)c(OC)c4OC)C[C@H]3[C@@H](OC)N2C(=O)OC(C)C)cc1OC", "A549", "6.21 µM"),
    ("COc1c(C)c(OC)c(OC)c2c1C[C@H]1CN(C(=O)OC(C)(C)C)[C@@H](Cc3ccccc3)C(=O)N1[C@H]2COCc1ccccc1", "A549", "7.3 µM"),
    ("COc1cc(C[C@@H]2NCC3=Cc4c(OC)c(C)c(OC)c(OC)c4[C@H](COC(=O)c4cccc5ccccc45)N3C2=O)c(OC)c(C)c1OC", "A549", "2.78 µM"),
    ("COc1c(C)c(OC)c(OC)c2c1C[C@H]1CN(Cc3ccc4ccccc4c3[N+](=O)[O-])CC(=O)N1[C@H]2COCc1ccccc1 (relative stereo)", "A549", "> 16.3 µM"),
]
